Molecular target: BiP (GRP78) (Homo sapiens)
Construct: recombinant His-GST-BiP (BiP-N-His-GST), expressed in E. coli
Sequence (P11021 19-654): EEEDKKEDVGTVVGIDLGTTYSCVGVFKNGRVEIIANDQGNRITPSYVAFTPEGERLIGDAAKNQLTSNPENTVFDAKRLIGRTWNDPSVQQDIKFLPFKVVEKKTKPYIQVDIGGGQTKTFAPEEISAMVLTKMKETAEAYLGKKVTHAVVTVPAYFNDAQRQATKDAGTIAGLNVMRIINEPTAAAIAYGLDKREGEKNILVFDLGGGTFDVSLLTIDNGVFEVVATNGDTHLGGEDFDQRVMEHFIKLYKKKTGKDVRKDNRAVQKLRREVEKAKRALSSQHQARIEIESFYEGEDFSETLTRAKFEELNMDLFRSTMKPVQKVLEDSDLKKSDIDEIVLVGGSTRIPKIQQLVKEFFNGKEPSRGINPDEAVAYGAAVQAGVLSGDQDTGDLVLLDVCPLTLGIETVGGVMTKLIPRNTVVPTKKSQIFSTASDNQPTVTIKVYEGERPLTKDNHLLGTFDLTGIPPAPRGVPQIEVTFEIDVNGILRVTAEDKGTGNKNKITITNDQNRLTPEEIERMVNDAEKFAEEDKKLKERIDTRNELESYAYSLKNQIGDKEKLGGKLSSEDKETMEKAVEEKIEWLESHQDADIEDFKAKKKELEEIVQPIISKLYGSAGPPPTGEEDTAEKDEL
Experiment: SPR (Biacore T200, His-capture plus amine coupling on NTA chip)

{"columns": ["Smiles representation", "Target or test system", "Kd (µM)"],
 "data": [
  ["COc1c(O)cc2oc3cc(O)c(CC=C(C)C)c(O)c3c(=O)c2c1CC=C(C)C", "BiP (GRP78) (Homo sapiens)", 21.7]
]}
